Quick record of Ki values for UniProtKB P56817.
Sequence (P56817 whole entry): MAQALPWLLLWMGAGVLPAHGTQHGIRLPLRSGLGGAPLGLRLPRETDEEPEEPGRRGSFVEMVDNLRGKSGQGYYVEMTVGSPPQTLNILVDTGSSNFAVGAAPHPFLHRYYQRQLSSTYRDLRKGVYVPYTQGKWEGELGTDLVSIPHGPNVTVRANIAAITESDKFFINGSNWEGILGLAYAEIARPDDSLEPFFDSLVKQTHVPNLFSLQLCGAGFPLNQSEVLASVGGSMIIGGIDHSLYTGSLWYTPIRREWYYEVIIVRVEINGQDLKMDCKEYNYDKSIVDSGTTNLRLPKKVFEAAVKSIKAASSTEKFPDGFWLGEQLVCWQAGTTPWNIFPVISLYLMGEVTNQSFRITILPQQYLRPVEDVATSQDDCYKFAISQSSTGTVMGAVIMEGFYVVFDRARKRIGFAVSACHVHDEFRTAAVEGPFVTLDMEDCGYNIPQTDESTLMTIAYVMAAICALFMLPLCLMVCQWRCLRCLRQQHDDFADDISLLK
Provide the reading as a plain figure in nM.

Some compounds with recorded Ki:
{"structure as smiles": "CCCNC(=O)c1cccc(C(=O)N[C@@H](CC(C)C)[C@@H](O)C[C@@H](C)C(=O)N[C@H](C(=O)NC(C)C)C(C)C)c1", "Ki [nM]": 788}
{"structure as smiles": "CC(C)C[C@H](NC(=O)c1cc(C(=O)N[C@H](CO)c2ccccc2)cc(N(C)S(C)(=O)=O)c1)[C@@H](O)C[C@@H](C)C(=O)N[C@H](C(=O)NC(C)C)C(C)C", "Ki [nM]": 438}

Would you kindly look at the next entry?
Query: State, for UniProtKB P56817, measured Ki of the compound listed here: "Cc1nc(CNC(=O)c2cc(C(=O)N[C@@H](CC(C)C)[C@@H](O)C[C@@H](C)C(=O)N[C@H](C(=O)NC(C)C)C(C)C)cc(N(C)S(C)(=O)=O)c2)c(C)o1"
Result: 1.8
